Assign IC50 to each entry below.
- SYSTEM: human synthetic MSK1 (14-438-K, Millipore) (Homo sapiens, UniProt O75582)
- Construct: purchased Millipore 14-438-K
- Sequence (O75582 whole entry): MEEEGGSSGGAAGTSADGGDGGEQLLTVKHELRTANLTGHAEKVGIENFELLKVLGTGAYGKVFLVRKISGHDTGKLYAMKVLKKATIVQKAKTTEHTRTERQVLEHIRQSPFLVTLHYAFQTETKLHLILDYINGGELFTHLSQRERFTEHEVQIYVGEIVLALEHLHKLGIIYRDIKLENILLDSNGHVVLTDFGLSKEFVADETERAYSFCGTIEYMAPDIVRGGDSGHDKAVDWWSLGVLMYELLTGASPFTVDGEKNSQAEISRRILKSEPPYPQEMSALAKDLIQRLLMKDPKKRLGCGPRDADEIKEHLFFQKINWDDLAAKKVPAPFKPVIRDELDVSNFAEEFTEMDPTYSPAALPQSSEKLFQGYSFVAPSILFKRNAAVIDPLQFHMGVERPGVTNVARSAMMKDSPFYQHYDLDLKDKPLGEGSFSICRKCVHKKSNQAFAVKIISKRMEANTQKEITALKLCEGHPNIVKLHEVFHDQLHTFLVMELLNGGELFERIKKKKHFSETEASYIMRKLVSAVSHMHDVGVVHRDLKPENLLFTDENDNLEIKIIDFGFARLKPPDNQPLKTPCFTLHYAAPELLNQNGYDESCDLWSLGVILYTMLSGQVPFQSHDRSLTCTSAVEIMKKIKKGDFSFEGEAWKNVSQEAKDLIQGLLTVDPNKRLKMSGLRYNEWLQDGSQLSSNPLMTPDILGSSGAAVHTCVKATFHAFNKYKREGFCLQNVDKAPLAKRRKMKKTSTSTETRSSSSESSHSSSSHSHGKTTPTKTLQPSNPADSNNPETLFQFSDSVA
- ASSAY NOTES: MSK1 enzymatic inhibition assay (Kinase-Glo luminescence)
- Assay type: biochemical
- EXPERIMENTAL PARAMETERS: ± Standard Deviation (n = 4); 8 concentrations 0.03-100 µM; read-out: MSK1 IC50
- Protocol: All results are summarized in Table 1, Table 2, Table 3, Table 4 and Table 5 and on Figure 4. […] An orthogonal luminescence-based assay Kinase-Glo® (Promega, Madison, WI, USA) was used to validate the hits, quantifying the amount of the remaining ATP in the solution following the kinase reaction. Enzymatic reactions were performed up to 4h at room temperature in presence of 3 µM ATP. […] Luminescence was measured with EnVision Plate Reader (Perkin Elmer).
// units = µM; emit number, no label

input: Output IC50 of Cc1ccccc1-c1cccc(NC(=N)N)n1
output: 3.5

input: Output IC50 of COc1ccccc1-c1cccc(NC(=N)N)n1
output: 2.3

input: Output IC50 of O=S(=O)(NCCNC/C=C/c1ccc(Br)cc1)c1cccc2cnccc12 [Compound H89, H89, reference compound]
output: 0.25

input: Output IC50 of N=C(N)Nc1cccc(-c2ccccc2F)n1
output: 5

input: Output IC50 of N=C(N)Nc1cccc(-c2ccccc2Cl)n1
output: 0.6

input: Output IC50 of N=C(N)Nc1cccc(-c2cccc(C(F)(F)F)c2Cl)n1
output: 8.6

input: Output IC50 of N=C(N)Nc1cccc(-c2cccc(Cl)c2)n1
output: 9.7

input: Output IC50 of N=C(N)Nc1cccc(-c2ccccc2C(F)(F)F)n1.O=C(O)C(F)(F)F
output: 8.1

input: Output IC50 of N=C(N)Nc1cccc(-c2cccnc2)n1
output: 5.8

Taken from paper PMC7828447.
